target: hSTING REF allele (Homo sapiens, UniProt Q86WV6); construct: DNA encoding amino acids 140-379 (amino acid numbering corresponding to Swiss Prot Q86WV6); 6xHIS (N, cleaved yes); SUMO (N, cleaved yes); made in house; host or cells: Rosetta2 (DE3) E. coli; assay: Differential scanning fluorometry (DSF) binding to purified STING AA140-379, REF allele; conditions: DSF; ligand 1 mM; 1 mg/ml STING AA140-379
Sequence (Q86WV6 140-379): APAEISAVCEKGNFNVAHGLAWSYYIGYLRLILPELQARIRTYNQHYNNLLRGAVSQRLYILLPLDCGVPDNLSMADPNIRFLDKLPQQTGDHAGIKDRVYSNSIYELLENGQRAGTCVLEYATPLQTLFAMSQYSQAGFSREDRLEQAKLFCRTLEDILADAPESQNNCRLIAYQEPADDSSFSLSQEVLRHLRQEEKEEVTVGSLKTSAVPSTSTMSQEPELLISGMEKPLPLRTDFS
ASSAY_ENDPOINT: hSTING Tm Shift REF (°C)

compound="Nc1ncnc2c1ncn2[C@@H]1O[C@@H]2CO[P@@](=O)(S)O[C@H]3[C@H]4OC[C@]3(CO[P@](=O)(S)O[C@@H]1[C@H]2F)O[C@H]4n1cnc2c(N)ncnc21 [Compound 37c]" target_under_test="hSTING REF allele (Homo sapiens, UniProt Q86WV6)" value=0.8
compound="CC(C)(C)[Si](C)(C)O[C@H]1[C@H]2O[P@](=O)(S)OC[C@@]34CO[C@@H]([C@H](n5cnc6c(N)ncnc65)O3)[C@@H]4O[P@](=O)(S)OC[C@H]1O[C@H]2n1cnc2c(N)ncnc21 [Compound 11a]" target_under_test="hSTING REF allele (Homo sapiens, UniProt Q86WV6)" value=5.4
compound="Nc1ncnc2c1ncn2[C@@H]1O[C@@]23CO[C@@H]1[C@@H]2O[P@](=O)(S)OC[C@@]12CO[C@@H]([C@H](n4cnc5c(N)ncnc54)O1)[C@@H]2O[P@](=O)(S)OC3 [Compound 5a]" target_under_test="hSTING REF allele (Homo sapiens, UniProt Q86WV6)" value=10.6

Measured values drawn from patent US11098077B2 for this set.
